# system: ALK5 (Homo sapiens (Human))
# Sequence (P36897 34-503): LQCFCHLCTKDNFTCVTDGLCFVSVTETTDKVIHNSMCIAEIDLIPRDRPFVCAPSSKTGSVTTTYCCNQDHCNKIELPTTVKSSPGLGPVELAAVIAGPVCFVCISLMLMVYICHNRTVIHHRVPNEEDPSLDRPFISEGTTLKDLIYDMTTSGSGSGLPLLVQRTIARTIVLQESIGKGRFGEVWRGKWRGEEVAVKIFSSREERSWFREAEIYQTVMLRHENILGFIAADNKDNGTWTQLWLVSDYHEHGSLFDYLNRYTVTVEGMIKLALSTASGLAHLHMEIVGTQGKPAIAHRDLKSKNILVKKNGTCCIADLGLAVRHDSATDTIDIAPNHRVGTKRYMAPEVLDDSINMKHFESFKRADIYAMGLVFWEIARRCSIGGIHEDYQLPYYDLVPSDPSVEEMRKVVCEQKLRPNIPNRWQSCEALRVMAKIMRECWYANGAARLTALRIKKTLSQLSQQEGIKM
# measurementNotes: Cell-free assay for inhibition of ALK5 kinase phosphorylation
# Assay type: biochemical
# setupConditions: read-out: IC50 on ALK5 kinase phosphorylation
pIC50: −log10 of the molar value.
observedProperty: pIC50

CCc1ccccc1NCc1nc(-c2ccc3ncnn3c2)c(-c2cccc(C)n2)[nH]1 [Example 30]	7.97
Cc1cccc(-c2[nH]c(CNc3ccc(CC#N)cc3)nc2-c2ccc3ncnn3c2)n1 [Example 69]	7.61

1: Cc1cccc(-c2[nH]c(CNc3ccc(NS(C)(=O)=O)cc3)nc2-c2ccc3ncnn3c2)n1 [Example 79]
2: COCc1ccccc1NCc1nc(-c2ccc3ncnn3c2)c(-c2cccc(C)n2)[nH]1 [Example 48]
3: Cc1cccc(-c2[nH]c(CNc3ccccc3OC(F)(F)F)nc2-c2ccc3ncnn3c2)n1 [Example 51]
INPUT: With regard to pIC50, arrange the entries in ascending order, please. To answer, arrange all of the labels according to the requested order.
OUTPUT: 1, 2, 3
(1: 7.33, 2: 7.62, 3: 7.91)

a: Cc1cccc(-c2[nH]c(CNc3cccc(Cl)c3Cl)nc2-c2ccc3ncnn3c2)n1 [Example 15]
b: Cc1cccc(-c2[nH]c(CNc3ccc(OC(F)(F)F)cc3)nc2-c2ccc3ncnn3c2)n1 [Example 53]
c: Cc1cccc(-c2[nH]c(CNc3cc(F)cc(F)c3)nc2-c2ccc3ncnn3c2)n1 [Example 9]
d: Cc1cccc(-c2[nH]c(CN(C)c3cccc(C#N)c3)nc2-c2ccc3ncnn3c2)n1 [Example 141]
INPUT: # desc sort on pIC50 across 4 compounds Write the labels, ordered according to the request.
OUTPUT: c, a, b, d
(c: 8.19, a: 7.91, b: 7.22, d: 6.93)

P: C=Cc1ccccc1NCc1nc(-c2ccc3ncnn3c2)c(-c2cccc(C)n2)[nH]1 [Example 36]
Q: Cc1cccc(-c2[nH]c(Cc3cccc(C(N)=O)c3)nc2-c2ccc3ncnn3c2)n1 [Example 147]
INPUT: Please choose the item with the lower pIC50 value from this pair: P and Q // caller expects the label of the chosen entry
OUTPUT: Q

P: Cc1cccc(-c2[nH]c(CNc3ccccc3Cl)nc2-c2ccc3ncnn3c2)n1 [Example 10]
Q: CC(=O)Nc1ccc(NCc2nc(-c3ccc4ncnn4c3)c(-c3cccc(C)n3)[nH]2)cc1 [Example 76]
INPUT: Hi there, can you help? I need to know whether P or Q has lower measured pIC50. Respond using the label that marks the chosen record.
OUTPUT: Q
